Would you kindly list pIC50 for each of these compounds?
- Tested on: HeLa
- Protocol Notes: Cytotoxicity against human HeLa cells after 48 hrs by MTT assay
- Format: functional, cell-based
pIC50 (log units): -log10 of the concentration in mol/L.

Check HeLa data and give pIC50 for COc1cc(NC(=O)[C@H](C)NC(=S)NC(=O)[C@]2(C)CCC[C@]3(C)c4ccc(C(C)C)cc4CC[C@@H]23)cc(OC)c1OC .
4.74

Would you please give the reported pIC50 of CC(C)c1ccc2c(c1)CC[C@H]1[C@](C)(C(=O)NC(=S)N[C@@H](C)C(=O)Nc3ccccn3)CCC[C@]21C with HeLa?
4.84

Report pIC50 on HeLa for this entry: CC(C)c1ccc2c(c1)CC[C@H]1[C@](C)(C(=O)NC(=S)N[C@@H](C)C(=O)Nc3ccccc3Cl)CCC[C@]21C
4.70

Report value only: pIC50, HeLa, Cc1ccc(NC(=O)[C@H](Cc2ccccc2)NC(=S)NC(=O)[C@]2(C)CCC[C@]3(C)c4ccc(C(C)C)cc4CC[C@@H]23)cc1
4.72
